Values were extracted from patent US9630977B2.

- System: P. aeruginosa 43
- TEST: In vitro antibacterial activity test (broth microdilution)
- Format: cell-based
- EXPERIMENTAL PARAMETERS: Pseudomonas aeruginosa, 43
Each entry below lists one item and its recorded MIC90 value.

Would you please look over these solved cases?
COMPOUND | MIC90
CC(C)(O/N=C(\C(=O)N[C@@H]1C(=O)N2C(C(=O)[O-])=C(/C=C/C[n+]3cnc(N)c(NCCCCN)c3)CSC12)c1nc(N)sc1Cl)C(=O)O (some centres unmarked) | > 128 µg/mL
CC(C)(O/N=C(\C(=O)N[C@@H]1C(=O)N2C(C(=O)[O-])=C(/C=C/C[n+]3cnc(N)c(NCCN)c3)CSC12)c1nsc(N)n1)C(=O)O (some centres unmarked) | > 128 µg/mL
CC(C)(O/N=C(\C(=O)N[C@@H]1C(=O)N2C(C(=O)[O-])=C(/C=C/C[n+]3cnc(N)c(NC(=O)CCN)c3)CSC12)c1nsc(N)n1)C(=O)O (some centres unmarked) | > 128 µg/mL

### Prompt What does the record list as MIC90 for CC(C)(O/N=C(\C(=O)N[C@@H]1C(=O)N2C(C(=O)[O-])=C(/C=C/C[n+]3cnc(N)c(NC(=O)CCCN)c3)CSC12)c1nc(N)sc1Cl)C(=O)O (some centres unmarked) ?
### Response 128 µg/mL

### Prompt What does the record list as MIC90 for CC(C)(O/N=C(\C(=O)N[C@@H]1C(=O)N2C(C(=O)[O-])=C(/C=C/C[n+]3cnc(N)c(NC(=O)CN)c3N)CSC12)c1csc(N)n1)C(=O)O (some centres unmarked) ?
### Response > 128 µg/mL
